# subject of test: KRAS-G12D (Homo sapiens, UniProt P01116, G12D)
# Sequence (P01116 1-188 isoform P01116-2 G12D): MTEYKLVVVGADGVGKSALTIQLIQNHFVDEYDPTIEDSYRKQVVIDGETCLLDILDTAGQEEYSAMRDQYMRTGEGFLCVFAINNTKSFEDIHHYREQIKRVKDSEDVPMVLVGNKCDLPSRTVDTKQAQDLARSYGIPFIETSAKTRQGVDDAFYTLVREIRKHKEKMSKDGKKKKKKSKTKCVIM
# experimental details: KRAS-G12D enzyme inhibition assay (GTPase activity assay)
# condition description: KRAS-G12D inhibition IC50, enzymatic inhibition
readout: IC50 (nM)
Give bare numbers, in nM.

Specify measured IC50 for C#Cc1c(F)ccc2cc(O)cc(-c3ncc4c(N5C[C@H]6CC[C@@H](C5)N6)nc(N5CCCN(C)CC5)nc4c3F)c12 [Compound 10k] .
9

----------
# Tested on: A549 (WT)
# experimental details: CCK-8 cell proliferation assay, A549 cells
# Assay type: cell-based
# condition description: Homo sapiens, KRAS wild-type
readout: IC50

See these solved cases before continuing.
molecule | IC50
CN1CCCN(c2nc3c(c(N4[C@@H]5CC[C@H]4CNC5)n2)CCN(C(=O)c2ccc(F)c4ccccc24)C3)CC1 [Compound 10c] | 6.88 µM
C#Cc1c(F)ccc2cc(O)cc(-c3ncc4c(N5C[C@H]6CC[C@@H](C5)N6)nc(N5CCCN(C)CC5)nc4c3F)c12 [Compound 10k] | 14.2 µM
CN1CCCN(c2nc3c(c(N4CCNCC4)n2)CCN(C(=O)c2ccc(F)c4ccccc24)C3)CC1 [Compound 10b] | 7.89 µM

Give measured IC50 for every item shown.
1. O=C(c1ccc(F)c2ccccc12)N1CCc2c(nc(N3CCN4CCC3CC4)nc2N2CCN3CCC2CC3)C1 [Compound 10g]
2. CN1CCCN(c2nc3c(c(N4CCNCC4CO)n2)CCN(C(=O)c2ccc(F)c4ccccc24)C3)CC1 (stereo not drawn) [Compound 10d]
3. CCN1CCC[C@H]1CNc1nc(NC(=O)c2cccc3ccccc23)cc(N2CCNCC2)n1 [Compound 10j]
4. CN1CCCN(c2nc3c(c(N4CCNCC4(C)C)n2)CCN(C(=O)c2ccc(F)c4ccccc24)C3)CC1 [Compound 10e]
5. CN1CCCN(c2nc3c(c(N4CCNCC4CO)n2)CCN(Cc2ccccc2)C3)CC1 (stereo not drawn) [Compound 10h]
6. CN1CCCN(c2nc3c(c(N4CCCN(C)CC4)n2)CCN(C(=O)c2ccc(F)c4ccccc24)C3)CC1 [Compound 10f]
7. CN1CCCN(c2nc3c(c(N4CC(N)C4)n2)CCN(C(=O)c2ccc(F)c4ccccc24)C3)CC1 [Compound 10a]

12.9 µM
7.48 µM
> 20 µM
12.8 µM
> 20 µM
> 20 µM
> 20 µM

Give measured IC50 for every item shown.
1. Cc1cccc2cccc(N3CCc4c(nc(N5CCCN(C)CC5)nc4N4C[C@H]5CC[C@@H](C4)N5)C3)c12 [Compound 10i]
2. C#Cc1c(F)ccc2cc(O)cc(-c3ncc4c(N5CC6CCC(C5)N6)nc(OC[C@@]56CCCN5C[C@H](F)C6)nc4c3F)c12 [MRTX1133, reference compound]

1. 5.5 µM
2. 12.7 µM

Just for reference, paper PMC12114952 is where these values come from.
